Test: Levothyroxine solubilization in aqueous amino acid solutions
Type: physicochemical
Conditions: aqueous aspartic acid solution, aqueous buffer, aspartic acid 1 mg/mL in water
measurement-kind: solubility (µg/mL)
Value expressed in µg/mL; do not type the unit.

**Query** Please give measured solubility of the following entry: N[C@@H](Cc1cc(I)c(Oc2cc(I)c(O)c(I)c2)c(I)c1)C(=O)O
**Result** 450

* * *

Assay: Levothyroxine solubilization in aqueous amino acid solutions
Type: physicochemical
Conditions: aqueous arginine solution, aqueous buffer, arginine in aqueous solutions
measurement-kind: solubility

**Query** Please give measured solubility of the following entry: N[C@@H](Cc1cc(I)c(Oc2cc(I)c(O)c(I)c2)c(I)c1)C(=O)O
**Result** > 0.5 mg/mL

These data points were gathered from patent US20200237695A1.
